settings: in NMP, 293.15 K
READOUT: solubility (mole fraction)
Give bare numbers.

Given the compound N=C(N)NC(N)=S , what is its reported solubility (mole fraction)? 0.0195

====

conditions: in cyclohexane, 308.15 K
READOUT: solubility (mole fraction)
Give bare numbers.

Given the molecule N=C(N)NC(N)=S , what is its reported solubility (mole fraction)? 8.4e-05

====

settings: in n-propanol, 308.15 K
READOUT: solubility (mole fraction)
Answers are plain numbers.

Given the compound N=C(N)NC(N)=S , what is its reported solubility (mole fraction)? 0.00676

====

conditions: in ethanol, 298.15 K
READOUT: solubility (mole fraction)
Numbers only.

Given the compound N=C(N)NC(N)=S , what is its reported solubility (mole fraction)? 0.00706

====

conditions: in ethanol, 288.15 K
READOUT: solubility (mole fraction)
Answers are plain numbers.

Given the molecule N=C(N)NC(N)=S , what is its reported solubility (mole fraction)? 0.00521

====

settings: in isopropanol, 308.15 K
READOUT: solubility (mole fraction)
Give bare numbers.

Given the compound N=C(N)NC(N)=S , what is its reported solubility (mole fraction)? 0.00456

====

conditions: in 1,4-dioxane, 293.15 K
READOUT: solubility (mole fraction)

Given the compound N=C(N)NC(N)=S , what is its reported solubility (mole fraction)? 0.0107

====

conditions: in 1,4-dioxane, 323.15 K
READOUT: solubility (mole fraction)
One number for each entry.

Given the compound N=C(N)NC(N)=S , what is its reported solubility (mole fraction)? 0.028

====

settings: in cyclohexane, 303.15 K
READOUT: solubility (mole fraction)
Answers are plain numbers.

Given the compound N=C(N)NC(N)=S , what is its reported solubility (mole fraction)? 7e-05

====

conditions: in acetone, 323.15 K
READOUT: solubility (mole fraction)
Numbers only.

Given the molecule N=C(N)NC(N)=S , what is its reported solubility (mole fraction)? 0.0371

====

conditions: in n-propanol, 288.15 K
READOUT: solubility (mole fraction)
Numbers only.

Given the compound N=C(N)NC(N)=S , what is its reported solubility (mole fraction)? 0.00326

====

conditions: in acetone, 298.15 K
READOUT: solubility (mole fraction)

Given the compound N=C(N)NC(N)=S , what is its reported solubility (mole fraction)? 0.0175

====

details: in 1,4-dioxane, 308.15 K
READOUT: solubility (mole fraction)
Numbers only.

Given the compound N=C(N)NC(N)=S , what is its reported solubility (mole fraction)? 0.0178

====

conditions: in isopropanol, 288.15 K
READOUT: solubility (mole fraction)

Given the compound N=C(N)NC(N)=S , what is its reported solubility (mole fraction)? 0.00167

====

settings: in ethyl acetate, 308.15 K
READOUT: solubility (mole fraction)
Give bare numbers.

Given the compound N=C(N)NC(N)=S , what is its reported solubility (mole fraction)? 0.00569

====

conditions: in methanol, 313.15 K
READOUT: solubility (mole fraction)
One number for each entry.

Given the compound N=C(N)NC(N)=S , what is its reported solubility (mole fraction)? 0.0143

====

conditions: in toluene, 303.15 K
READOUT: solubility (mole fraction)

Given the compound N=C(N)NC(N)=S , what is its reported solubility (mole fraction)? 0.000174

====

conditions: in cyclohexane, 313.15 K
READOUT: solubility (mole fraction)
One number for each entry.

Given the compound N=C(N)NC(N)=S , what is its reported solubility (mole fraction)? 9.9e-05
